All figures here come from patent US6914045B2.

System: Staphylococcus sp.
experiment_description: in vitro antibacterial evaluation, MIC by broth dilution
Format: cell-based
particulars: broth dilution, 18 hours at 35° C.; strain GC 4549
Numbered stars: 1 amine (or outer) side, 2 acyl side, 3 side chain; on linkers, the order of the positions; unused ones are H or OH. Square brackets hold non-standard residues; d marks the D form. Peptide text beside a SMILES is read from it. ξ: configuration not given here. X1 = N=C1NCC(C(O)C(N[*:1])C(=O)[*:2])N1C1OC(CO)C(O)C(O)C1O; ξEnduracididine(βξ-OH,4'ξ) = N=C1NCC(C(O)C(N)C(=O)O)N1; Tyr(3-NO2) = N[CH](Cc1ccc(O)c([N+](=O)[O-])c1)C(=O)O; ξPhe(βξ-Me) = CC(c1ccccc1)C(N)C(=O)O
measure_name: MIC Coagulase Negative Staphylococcus (GC 4549)

[ask] API: value(readout=MIC Coagulase Negative Staphylococcus (GC 4549), system=Staphylococcus sp.) for record CC(c1ccccc1)C1NC(=O)CNC(=O)C(CO)NC(=O)C(C(O)C2CNC(=N)N2C2OC(CO)C(O)C(O)C2O)NC(=O)C(C(O)C2CNC(=N)N2)NC(=O)C(Cc2ccc(OC3OC(CO)C(OC4OC(COCc5ccc(OCc6ccccc6)cc5)C(O)C(O)C4O)C(O)C3O)cc2)NC1=O (stereo not drawn) [Example 231]
[reply] 0.25 to 0.5 µg/mL

Fill in MIC Coagulase Negative Staphylococcus (GC 4549) for each of the 2 compounds listed.
1. CCCOc1ccc(COCC2OC(OC3C(CO)OC(Oc4ccc(CC5NC(=O)C(C(C)c6ccccc6)NC(=O)CNC(=O)C(CO)NC(=O)C(C(O)C6CNC(=N)N6C6OC(CO)C(O)C(O)C6O)NC(=O)C(C(O)C6CNC(=N)N6)NC5=O)cc4)C(O)C3O)C(O)C(O)C2O)cc1 (stereo not drawn) [Example 235]
2. CC(c1ccccc1)C1NC(=O)CNC(=O)C(CO)NC(=O)C(C(O)C2CNC(=N)N2C2OC(CO)C(O)C(O)C2O)NC(=O)C(C(O)C2CNC(=N)N2)NC(=O)C(Cc2ccc(O)c([N+](=O)[O-])c2)NC1=O (stereo not drawn) [Example 8] (cyclo(G[ξPhe(βξ-Me)][Tyr(3-NO2)][ξEnduracididine(βξ-OH,4'ξ)][X1]S); configuration not given here)

[reply]
0.25 to 0.5 µg/mL
>128 µg/mL

----------
Test system: Staphylococcus sp.
experiment_description: in vitro antibacterial evaluation, MIC by broth dilution
Assay type: cell-based
particulars: strain GC 4551; broth dilution, 18 hours at 35° C.
Give measured MIC Coagulase Negative Staphylococcus (GC 4551) for each item. Keep answers brief.

[ask] # input molecule: CC(c1ccccc1)C1NC(=O)CNC(=O)C(CO)NC(=O)C(C(O)C2CNC(=N)N2C2OC(CO)C(O)C(O)C2O)NC(=O)C(C(O)C2CNC(=N)N2)NC(=O)C(Cc2ccc(OC3OC(CO)C(OC4OC5COC(c6cccc(OCc7ccc([N+](=O)[O-])cc7)c6)OC5C(O)C4O)C(O)C3O)cc2)NC1=O (stereo not shown) [Example 182] ; wanted: its MIC Coagulase Negative Staphylococcus (GC 4551)
[reply] >64 µg/mL

[ask] # input molecule: CC(C1CCCCC1)C1NC(=O)CNC(=O)C(CO)NC(=O)C(C(O)C2CNC(=N)N2C2OC(CO)C(O)C(O)C2O)NC(=O)C(C(O)C2CNC(=N)N2)NC(=O)C(C[C@H]2CC[C@H](O)CC2)NC1=O (stereo partly shown) [Example 54a] ; wanted: its MIC Coagulase Negative Staphylococcus (GC 4551)
[reply] >128 µg/mL

[ask] # input molecule: CC(c1ccccc1)C1NC(=O)CNC(=O)C(CO)NC(=O)C(C(O)C2CN(Cc3ccc(C(C)(C)C)cc3)C(=N)N2C2OC(CO)C(O)C(O)C2O)NC(=O)C(C(O)C2CNC(=N)N2)NC(=O)C(Cc2ccc(OC3OC(CO)C(OC4OC(CO)C(O)C(O)C4O)C(O)C3O)cc2)NC1=O (stereo not shown) [Example 60] ; wanted: its MIC Coagulase Negative Staphylococcus (GC 4551)
[reply] >128 µg/mL

Could you now consider this next molecule?
[ask] # input molecule: CC(c1ccccc1)C1NC(=O)CNC(=O)C(CO)NC(=O)C(C(O)C2CNC(=N)N2C2OC(CO)C(O)C(O)C2O)NC(=O)C(C(O)C2CNC(=N)N2)NC(=O)C(Cc2ccc(OC3OC(CO)C(OC4OC5COC(c6ccccc6)OC5C(O)C4O)C(O)C3O)c(I)c2)NC1=O (stereo not shown) [Example 196] ; wanted: its MIC Coagulase Negative Staphylococcus (GC 4551)
[reply] >64 µg/mL
